Test system: KB-3-1
Measurement protocol: Cytotoxic Profiling of Annotated Libraries Using Quantitative High-Throughput Screening (AID 1296008); also: % is scaled to controls: 0 for no effect and ±100 for the full control effect; nearly all actives have a fitted effect of over 60% in size
Measurement context: Five cell lines viability, CellTiter-Glo ATP luminescence, 48-72 h; hits give low values
Results filed as inconclusive are left out.
// reported max response for each item listed
Please reply with the bare figure in % and do not write the unit itself.

Look over these answered cases.
>>> df
                                   compound  measure_unit  reported_measurement
0  COc1ccc(S(=O)(=O)N2c3ccc(Cl)cc3[C@@](O)(c3ccccc3Cl)[C@H]2C(=O)N2CCC[C@@H]2C(N)=O)cc1OC             %                 -5.62
1       CCCCCCCCOc1ccc(C(=O)c2ccccc2)c(O)c1             %                  1.72

Query: Entry CCC(C(=O)OCCOCCN(CC)CC)c1ccccc1 (stereo not drawn) needs its max response filled in; supply it.
Reply: 16.3

Query: Entry "CC(=O)NO" needs its max response filled in; supply it.
Reply: 15.6

Query: Entry "CC(=O)Oc1ccc(C)cc1" needs its max response filled in; supply it.
Reply: 5.93

Query: Entry CCC1NC(=O)c2cc(S(N)(=O)=O)c(Cl)cc2N1 (stereo not drawn) needs its max response filled in; supply it.
Reply: -10.4

Query: Entry CC(O)Cn1cnc2c1c(=O)n(C)c(=O)n2C (stereo not drawn) needs its max response filled in; supply it.
Reply: 13.1

Query: Entry CCO[C@@H]1O[C@H](C(COCc2ccccc2)OCc2ccccc2)[C@H](OCc2ccccc2)[C@H]1O (stereo partly drawn) needs its max response filled in; supply it.
Reply: -15.4

Query: Entry CCN(CC)CCOC(=O)C(Cc1cccc2ccccc12)CC1CCCO1 (stereo not drawn) needs its max response filled in; supply it.
Reply: 13.9

Query: Entry "CCOc1cc(OCC)c(C(=O)CCC(=O)O)cc1OCC" needs its max response filled in; supply it.
Reply: -0.0013

###

System: AS120
Measurement protocol: qHTS profiling for inhibitors of Plasmodium falciparum proliferation (AID 504749); also: nearly all actives have a fitted effect of over 60% in size
Measurement context: P. falciparum in erythrocytes, SYBR Green DNA, 72 h; series mostly up to 28.7 µM
Records with an inconclusive call do not appear. The source made the active and inactive calls. Calls come from the whole dose curve; as a rule, active = well fitted inhibition curve with a large enough effect; inconclusive = small, poorly fitted or top-dose-only effect; inactive = flat fitted curve, though single readings scatter.
Select the matching outcome among 1 (yes) for active, 0 (no) for inactive

>>> print(df.to_string())
                                   molecule  class_assignment
0              COc1ccc(C(=O)c2ccccc2)c(O)c1            0 (no)
1  O=C(c1ccc(F)cc1)C1CCN(CCn2c(=S)[nH]c3ccccc3c2=O)CC1           1 (yes)
2  COc1cc(N)c(Cl)cc1C(=O)NC1CCN(Cc2ccccc2)CC1            0 (no)
3                                  CC(=O)NO            0 (no)
4  O=C1C(=O)c2ccccc2C(O)=C1C1CCC(c2ccc(Cl)cc2)CC1 (stereo unspecified)           1 (yes)
5  Cc1ccc(O)c([C@H](CCN(C(C)C)C(C)C)c2ccccc2)c1           1 (yes)
6  C#C[C@]1(O)CC[C@H]2[C@@H]3CCC4=CC(=O)CC[C@@H]4[C@H]3CC[C@@]21CC            0 (no)
7                  C/C=C/C=N/NC(=O)c1ccncc1            0 (no)
8  CC(C)[N+](C)(C)CC(O)COc1cccc2ccccc12 (stereo unspecified)            0 (no)
9  CCc1ccc(C(=O)C(C)CN2CCCCC2)cc1 (stereo unspecified)            0 (no)

Below: the item to evaluate.
Query: Hey, what did the test say about "CC(C)Nc1cccnc1N1CCN(C(=O)c2cc3cc(NS(C)(=O)=O)ccc3[nH]2)CC1" ?
Reply: 0 (no)
